Just for reference, patent US20200157212A1 is where these values come from.

System Name: T1, Terbium (Tb) labeled-SNAP tagged ROBO2 expressed on HEK293 cells (Homo sapiens (Human), UniProt Q9HCK4 22-1378, terbium label on the SNAP tag)
T1 construct: also called Tb-labeled ROBO2 cells; ROBO2 expressing cells; not shown: SNAP tag
T1 sequence: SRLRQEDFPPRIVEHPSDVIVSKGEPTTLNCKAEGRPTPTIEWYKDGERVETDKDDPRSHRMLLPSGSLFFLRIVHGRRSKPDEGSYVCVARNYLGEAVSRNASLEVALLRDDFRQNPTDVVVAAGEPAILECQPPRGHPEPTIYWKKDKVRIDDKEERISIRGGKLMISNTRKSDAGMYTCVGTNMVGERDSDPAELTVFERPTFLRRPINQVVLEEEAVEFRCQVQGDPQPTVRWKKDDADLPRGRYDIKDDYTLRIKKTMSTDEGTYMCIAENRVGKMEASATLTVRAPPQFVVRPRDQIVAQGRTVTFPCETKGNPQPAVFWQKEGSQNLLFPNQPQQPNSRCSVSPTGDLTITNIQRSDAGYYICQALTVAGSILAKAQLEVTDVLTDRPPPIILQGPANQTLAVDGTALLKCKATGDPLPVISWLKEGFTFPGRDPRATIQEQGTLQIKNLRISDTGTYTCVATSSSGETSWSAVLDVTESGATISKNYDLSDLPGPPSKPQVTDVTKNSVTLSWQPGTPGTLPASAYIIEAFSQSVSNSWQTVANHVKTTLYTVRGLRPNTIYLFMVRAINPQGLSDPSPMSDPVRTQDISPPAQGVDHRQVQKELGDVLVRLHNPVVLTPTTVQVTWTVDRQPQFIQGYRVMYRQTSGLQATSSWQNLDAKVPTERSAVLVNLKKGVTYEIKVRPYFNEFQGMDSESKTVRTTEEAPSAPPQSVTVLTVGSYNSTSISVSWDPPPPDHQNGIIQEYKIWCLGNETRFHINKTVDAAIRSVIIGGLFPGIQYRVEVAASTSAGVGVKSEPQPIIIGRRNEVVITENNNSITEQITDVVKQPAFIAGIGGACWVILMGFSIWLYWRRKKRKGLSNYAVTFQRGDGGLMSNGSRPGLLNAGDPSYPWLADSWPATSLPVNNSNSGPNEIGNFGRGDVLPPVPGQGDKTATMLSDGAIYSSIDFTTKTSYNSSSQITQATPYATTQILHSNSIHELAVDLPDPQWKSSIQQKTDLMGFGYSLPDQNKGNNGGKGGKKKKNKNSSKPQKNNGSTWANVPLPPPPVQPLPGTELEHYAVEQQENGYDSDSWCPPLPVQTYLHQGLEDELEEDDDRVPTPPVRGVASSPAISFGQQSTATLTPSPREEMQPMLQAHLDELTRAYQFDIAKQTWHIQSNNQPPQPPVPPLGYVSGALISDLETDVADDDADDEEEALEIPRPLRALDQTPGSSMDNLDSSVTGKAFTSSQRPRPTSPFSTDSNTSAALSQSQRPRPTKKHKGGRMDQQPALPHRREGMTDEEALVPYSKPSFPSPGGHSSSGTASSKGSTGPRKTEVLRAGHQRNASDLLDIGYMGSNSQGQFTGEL
Assay Text: HTRF, 5 nM d2-SLIT2-N on Tb-SNAP-ROBO2 HEK293 cells, 1 nM antibody
I'd appreciate it if you marked entries true (1) when HTRF Ratio is lower than 4000 and false (0) when it is not.

Binder	Answer Label
CTIR2-13 (antibody, human IgG1, kappa, V domains shown, CDR-shuffled IgG) VH: EVQLVQSGAEVKKPGASVKVSCKASGYTFRGYAMHWVRQAPGQGLEWMGWIDPRTGLTKFPQKFQGRVTMTRDTSITTAYMDLSRLRSDDTAVYYCARESGDDAFDIWGQGTMVTVSS VL: DIVMTQSPSSLSASVGDRVTITCRASQKISSYLNWYQQKPGKAPKLLIYAASSLQYGVPSRFSGSGSGTDFTLTISSLQPEDFATYYCQQSYSTSFGGGTKVEIKR	true (1)
CTIR2-1 (antibody, human IgG1, kappa, V domains shown, CDR-shuffled IgG) VH: EVQLVQSGAEVKKPGASVKVSCKASGYTFTGYYMHWVRQAPGQGLEWMGWINPRSGATNFPQKFQGRVTMTRDTSITTAYMDLSRLRSDDTAVYYCARESGDDAFDIWGQGTMVTVSS VL: DIVMTQSPSSLSASVGDRVTITCRASQSISSYLNWYQQKPGKAPKLLIYAASSLQYGVPSRFSGSGSGTDFTLTISSLQPEDFATYYCQQSLELGFGGGTKVEIKR	false (0)
Ab123 (antibody, human IgG1, kappa, V domains shown, full-length human IgG) VH: EVQLVQSGAEVKKPGASVKVSCKASGYTFTGYYMHWVRQAPGQGLEWMGWINPNSGATNFPQKFQGRVTMTRDTSITTAYMDLSRLRSDDTAVYYCARESGDDAFDIWGQGTMVTVSS VL: DIVMTQSPSSLSASVGDRVTITCRASQSISSYLNWYQQKPGKAPKLLIYAASSLQSGVPSRFSGSGSGTDFTLTISSLQPEDFATYYCQQSVGLFFGGGTKVEIKR	false (0)
Ab13 (antibody, human IgG1, kappa, V domains shown, full-length human IgG) VH: EVQLVQSGAEVKKPGASVKVSCKASGYTFTGYDMHWVRQAPGQGLEWMGWINPNSGATNFPQKFQGRVTMTRDTSITTAYMDLSRLRSDDTAVYYCARESGDDAFDIWGQGTMVTVSS VL: DIVMTQSPSSLSASVGDRVTITCRASQSISSYLNWYQQKPGKAPKLLIYAASSLQDGVPSRFSGSGSGTDFTLTISSLQPEDFATYYCQQSYSTSFGGGTKVEIKR	false (0)
Ab3 (antibody, human IgG1, kappa, V domains shown, full-length human IgG) VH: EVQLVQSGAEVKKPGASVKVSCKASGYTFTGYYMHWVRQAPGQGLEWMGWINPKSGATNFPQKFQGRVTMTRDTSITTAYMDLSRLRSDDTAVYYCARESGDDAFDIWGQGTMVTVSS VL: DIVMTQSPSSLSASVGDRVTITCRASQKISSYLNWYQQKPGKAPKLLIYAASSLQSGVPSRFSGSGSGTDFTLTISSLQPEDFATYYCQQSYSTSFGGGTKVEIKR	false (0)
Abcs5 (antibody, human IgG1, kappa, V domains shown, chain-shuffled IgG) VH: EVQLVQSGAEVKKPGASVKVSCKASGYTFTGYYMHWVRQAPGQGLEWMGWINPKNGDTEFPQKFQGRVTMTRDTSITTAYMDLSRLRSDDTAVYYCARESGDDAFDIWGQGTMVTVSS VL: DIVMTQSPSSLSASVGDRVTITCRASQSISSYLNWYQQKPGKAPKLLIYAASSLQSGVPSRFSGSGSGTDFTLTISSLQPEDFATYYCQQSLELGFGGGTKVEIKR	true (1)
Abcs50 (antibody, human IgG1, kappa, V domains shown, chain-shuffled IgG) VH: EVQLVQSGAEVKKPGASVKVSCKASGYTFTGYYMHWVRQAPGQGLEWMGWINPKNGDTEFPQKFQGRVTMTRDTSITTAYMDLSRLRSDDTAVYYCARESGDDAFDIWGQGTMVTVSS VL: DIVMTQSPSSLSASVGDRVTITCRASQSISSYLNWYQQKPGKAPKLLIYAASSLQYGVPSRFSGSGSGTDFTLTISSLQPEDFATYYCQQSYSTSFGGGTKVEIKR	true (1)
Ab40 (antibody, human IgG1, kappa, V domains shown, full-length human IgG) VH: EVQLVQSGAEVKKPGASVKVSCKASGYTFTGYYMHWVRQAPGQGLEWMGWINPNSGATNFPQKFQGRVTMTRDTSITTAYMDLSRLRSDDTAVYYCARESGDDAFDIWGQGTMVTVSS VL: DIVMTQSPSSLSASVGDRVTITCRASQSISSYLNWYQQKPGKAPKLLIYAASSLQSGVPSRFSGSGSGTDFTLTISSLQPEDFATYYCQQSLELGFGGGTKVEIKR	false (0)
Ab17 (antibody, human IgG1, kappa, V domains shown, full-length human IgG) VH: EVQLVQSGAEVKKPGASVKVSCKASGYTFTGYDMHWVRQAPGQGLEWMGWINPNSGATNFPQKFQGRVTMTRDTSITTAYMDLSRLRSDDTAVYYCARESGDDAFDIWGQGTMVTVSS VL: DIVMTQSPSSLSASVGDRVTITCRASQSISSYLNWYQQKPGKAPKLLIYAASSLQEGVPSRFSGSGSGTDFTLTISSLQPEDFATYYCQQSYSTSFGGGTKVEIKR	false (0)
